system: Staphylococcus aureus; experiment: Potency index, ratio of Vancomycin MIC to test compound MIC for antibacterial activity against Vancomycin-resistant Staphylococcus aureus 12; format: functional
Answer each item with its documented Ratio.
One number for each entry.

Guide cases for Ratio, answers given:
CCCCCCCCCCCCCCNC(=O)C[N+](C)(C)CCCNC(=O)c1ccc(CN[C@@]2(C)C[C@H](O[C@H]3[C@H](Oc4c5cc6cc4Oc4ccc(cc4Cl)[C@@H](O)[C@@H](NC(=O)[C@@H](CC(C)C)NC)C(=O)N[C@@H](CC(N)=O)C(=O)N[C@H]6C(=O)N[C@H]4C(=O)N[C@H](C(=O)N[C@H](C(=O)O)c6cc(O)cc(O)c6-c6cc4ccc6O)[C@H](O)c4ccc(c(Cl)c4)O5)O[C@H](CO)[C@@H](O)[C@@H]3O)O[C@@H](C)[C@H]2O)cc1	780
CCCCCCCCCCNC(=O)c1ccc(CN[C@@]2(C)C[C@H](O[C@H]3[C@H](Oc4c5cc6cc4Oc4ccc(cc4Cl)[C@@H](O)[C@@H](NC(=O)[C@@H](CC(C)C)NC)C(=O)N[C@@H](CC(N)=O)C(=O)N[C@H]6C(=O)N[C@H]4C(=O)N[C@H](C(=O)N[C@H](C(=O)O)c6cc(O)cc(O)c6-c6cc4ccc6O)[C@H](O)c4ccc(c(Cl)c4)O5)O[C@H](CO)[C@@H](O)[C@@H]3O)O[C@@H](C)[C@H]2O)cc1	390
CN[C@H](CC(C)C)C(=O)N[C@H]1C(=O)N[C@@H](CC(N)=O)C(=O)N[C@H]2C(=O)N[C@H]3C(=O)N[C@H](C(=O)N[C@H](C(=O)O)c4cc(O)cc(O)c4-c4cc3ccc4O)[C@H](O)c3ccc(c(Cl)c3)Oc3cc2cc(c3O[C@@H]2O[C@H](CO)[C@@H](O)[C@H](O)[C@H]2O[C@H]2C[C@](C)(NCc3ccc(C(=O)NCCC[N+](C)(C)Cc4ccc(-c5ccccc5)cc4)cc3)[C@H](O)[C@H](C)O2)Oc2ccc(cc2Cl)[C@H]1O	47
CCCCCCCCCCNC(=O)C[N+](C)(C)CCCNC(=O)c1ccc(CN[C@@]2(C)C[C@H](O[C@H]3[C@H](Oc4c5cc6cc4Oc4ccc(cc4Cl)[C@@H](O)[C@@H](NC(=O)[C@@H](CC(C)C)NC)C(=O)N[C@@H](CC(N)=O)C(=O)N[C@H]6C(=O)N[C@H]4C(=O)N[C@H](C(=O)N[C@H](C(=O)O)c6cc(O)cc(O)c6-c6cc4ccc6O)[C@H](O)c4ccc(c(Cl)c4)O5)O[C@H](CO)[C@@H](O)[C@@H]3O)O[C@@H](C)[C@H]2O)cc1	1384
CCCCCCCCNC(=O)C[N+](C)(C)CCCNC(=O)c1ccc(CN[C@@]2(C)C[C@H](O[C@H]3[C@H](Oc4c5cc6cc4Oc4ccc(cc4Cl)[C@@H](O)[C@@H](NC(=O)[C@@H](CC(C)C)NC)C(=O)N[C@@H](CC(N)=O)C(=O)N[C@H]6C(=O)N[C@H]4C(=O)N[C@H](C(=O)N[C@H](C(=O)O)c6cc(O)cc(O)c6-c6cc4ccc6O)[C@H](O)c4ccc(c(Cl)c4)O5)O[C@H](CO)[C@@H](O)[C@@H]3O)O[C@@H](C)[C@H]2O)cc1	750

Please find the next compound below.
Q) # Ratio lookup, item `CCCCCCCCNC(=O)c1ccc(CN[C@@]2(C)C[C@H](O[C@H]3[C@H](Oc4c5cc6cc4Oc4ccc(cc4Cl)[C@@H](O)[C@@H](NC(=O)[C@@H](CC(C)C)NC)C(=O)N[C@@H](CC(N)=O)C(=O)N[C@H]6C(=O)N[C@H]4C(=O)N[C@H](C(=O)N[C@H](C(=O)O)c6cc(O)cc(O)c6-c6cc4ccc6O)[C@H](O)c4ccc(c(Cl)c4)O5)O[C@H](CO)[C@@H](O)[C@@H]3O)O[C@@H](C)[C@H]2O)cc1`
A) 166
